target: PIK3CA (human) (UniProt P42336); assay: Assessment of PIK3CA Kinase Activity
Sequence (P42336 whole entry, looked up): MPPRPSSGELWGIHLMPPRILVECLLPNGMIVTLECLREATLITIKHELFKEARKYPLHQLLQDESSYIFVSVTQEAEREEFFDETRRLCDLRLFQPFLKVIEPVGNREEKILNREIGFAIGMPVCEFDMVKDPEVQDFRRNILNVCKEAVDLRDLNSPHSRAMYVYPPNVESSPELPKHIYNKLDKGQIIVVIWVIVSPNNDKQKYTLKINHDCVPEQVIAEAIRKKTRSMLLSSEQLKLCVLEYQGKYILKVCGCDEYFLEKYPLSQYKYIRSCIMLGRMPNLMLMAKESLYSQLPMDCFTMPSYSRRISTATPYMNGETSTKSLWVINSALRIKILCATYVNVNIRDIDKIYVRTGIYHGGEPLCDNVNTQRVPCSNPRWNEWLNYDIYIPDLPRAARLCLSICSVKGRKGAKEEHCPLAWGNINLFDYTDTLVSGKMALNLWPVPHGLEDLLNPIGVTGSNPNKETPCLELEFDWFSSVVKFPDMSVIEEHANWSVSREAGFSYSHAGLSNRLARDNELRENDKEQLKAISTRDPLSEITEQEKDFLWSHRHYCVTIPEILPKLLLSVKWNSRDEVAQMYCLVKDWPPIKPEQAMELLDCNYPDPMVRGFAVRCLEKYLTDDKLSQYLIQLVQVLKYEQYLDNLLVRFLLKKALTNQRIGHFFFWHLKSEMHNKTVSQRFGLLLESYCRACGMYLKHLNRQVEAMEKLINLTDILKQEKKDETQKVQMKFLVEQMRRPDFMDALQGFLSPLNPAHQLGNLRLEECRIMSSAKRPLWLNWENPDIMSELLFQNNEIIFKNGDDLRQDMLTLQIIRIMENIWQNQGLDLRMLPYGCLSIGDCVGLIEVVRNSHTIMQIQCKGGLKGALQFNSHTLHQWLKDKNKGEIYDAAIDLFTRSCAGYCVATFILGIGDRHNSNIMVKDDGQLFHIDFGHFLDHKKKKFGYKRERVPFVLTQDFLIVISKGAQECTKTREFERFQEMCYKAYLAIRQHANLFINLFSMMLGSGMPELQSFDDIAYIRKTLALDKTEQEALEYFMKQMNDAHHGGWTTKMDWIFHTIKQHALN
pIC50: −log10 of the molar value.
property: pIC50

Give its pIC50 value. Item: "Cc1ccc(-c2ccc3c(N4CCOCC4)nc(-c4ccc(NC(=O)Nc5ccc(C(=O)N6CCN(C)CC6)cc5)cc4)nc3c2)o1"
6.70 to 7.30

Give its pIC50 value. Item: "CN(C)C(=O)c1ccc(NC(=O)Nc2ccc(-c3nc(N4CCOCC4)c4ccc(-c5ccccn5)cc4n3)cc2)cc1F"
> 7.30

Give its pIC50 value. Item: "CN(C)CCNC(=O)c1ccc(NC(=O)Nc2ccc(-c3nc(N4CCOCC4)c4ccc(-c5cncnc5)cc4n3)cc2F)cc1"
> 7.30

Give its pIC50 value. Item: "Cc1ccncc1-c1ccc2c(N3CCOCC3)nc(-c3ccc(NC(=O)Nc4ccc(C(=O)N5CCC(N(C)C)CC5)cc4)cc3)nc2c1"
> 7.30

Give its pIC50 value. Item: "CN(C)C(=O)c1ccc(NC(=O)Nc2ccc(-c3nc(N4CCOCC4)c4ccc(-c5ccc(C(=O)N(C)C)o5)cc4n3)cc2)cc1"
> 7.30

Give its pIC50 value. Item: "CN(C)C(=O)c1ccc(NC(=O)Nc2ccc(-c3nc(N4CCOCC4)c4ncc(-c5cncnc5)cc4n3)cc2)cc1"
> 7.30

Give its pIC50 value. Item: "CN(C)C(=O)c1ccc(NC(=O)Nc2ccc(-c3nc(N4CCOCC4)c4ncc(-c5cnn(C)c5)cc4n3)cc2)cc1F"
> 7.30

Give its pIC50 value. Item: "CN(C)C(=O)c1ccc(NC(=O)Nc2ccc(-c3nc(N4CCOCC4)c4ccc(-c5cnc6ccccc6c5)cc4n3)cc2)cc1"
> 7.30

Give its pIC50 value. Item: "CN(C)C(=O)c1ccc(NC(=O)Nc2ccc(-c3nc(N4CCOCC4)c4ccc(-c5cccs5)cc4n3)cc2)cc1"
> 7.30

Give its pIC50 value. Item: "CN(C)C(=O)c1ccc(NC(=O)Nc2ccc(-c3nc(N4CCOCC4)c4ccc(-c5cccnc5F)cc4n3)cc2)cc1"
6.70 to 7.30

Give its pIC50 value. Item: "Cc1noc(C)c1-c1cnc2c(N3CCOCC3)nc(-c3ccc(NC(=O)Nc4ccc(C(=O)N(C)C)cc4)cc3)nc2c1"
> 7.30

Give its pIC50 value. Item: "CN(C)C(=O)c1ccc(NC(=O)Nc2ccc(-c3nc(N4CCOCC4)c4ccc(-c5cnc(N(C)C)nc5)cc4n3)c(F)c2)cc1"
> 7.30

Give its pIC50 value. Item: "CN(C)C(=O)c1ccc(NC(=O)Nc2ccc(-c3nc(N4CCOCC4)c4ccc(-c5cccnc5F)cc4n3)cc2)cn1"
6.70 to 7.30

Give its pIC50 value. Item: "CN1CCN(C(=O)c2ccc(NC(=O)Nc3ccc(-c4nc(N5CCOCC5)c5cc(F)c(-c6cccnc6)cc5n4)cc3F)cc2)CC1"
> 7.30

Give its pIC50 value. Item: "Cn1cc(-c2cnc3c(N4CCOCC4)nc(-c4ccc(NC(=O)Nc5ccc(C(N)=O)cc5)cc4)nc3c2)cn1"
> 7.30

###

Record set of IC50 for target or system PIK3CA (human) (UniProt P42336).

Give its IC50 value. Item: "CN(C)C(=O)c1ccc(NC(=O)Nc2ccc(-c3nc(N4CCOCC4)c4ccc(-c5ccco5)cc4n3)c(F)c2F)cc1"
50 to 200 nM

Give its IC50 value. Item: "CN(C)C(=O)c1ccc(NC(=O)Nc2ccc(-c3nc(N4CCOCC4)c4ccc(-c5ccnc(F)c5)cc4n3)cc2)cc1"
< 50 nM

Give its IC50 value. Item: "Cc1noc(C)c1-c1ccc2c(N3CCOCC3)nc(-c3ccc(NC(=O)Nc4ccc(C(=O)N(C)C)c(F)c4)cc3)nc2c1"
50 to 200 nM

Give its IC50 value. Item: "CN1CCN(C(=O)c2ccc(NC(=O)Nc3ccc(-c4nc(N5CCOCC5)c5ccc(-c6ccncc6)cc5n4)cc3F)cc2)CC1"
50 to 200 nM

Give its IC50 value. Item: "CN(C)C(=O)c1ccc(NC(=O)Nc2ccc(-c3nc(N4CCOCC4)c4ccc(-c5cnn(C)c5)cc4n3)cn2)cc1"
< 50 nM

Give its IC50 value. Item: "CNC(=O)c1ccc(NC(=O)Nc2ccc(-c3nc(N4CCOCC4)c4ncc(-c5cnn(C)c5)cc4n3)cc2)cc1"
< 50 nM

Give its IC50 value. Item: "CN(C)C(=O)c1ccc(NC(=O)Nc2ccc(-c3nc(N4CCOCC4)c4ccc(-c5cnc(O)nc5)cc4n3)cc2)cc1"
< 50 nM

Give its IC50 value. Item: "CN(C)C(=O)c1ccc(NC(=O)Nc2ccc(-c3nc(N4CCOCC4)c4ccc(-c5cccc(N(C)C)c5)cc4n3)cc2)cc1"
< 50 nM

Give its IC50 value. Item: "CN(C)C(=O)c1ccc(NC(=O)Nc2ccc(-c3nc(N4CCOCC4)c4cc(F)c(-c5cccnc5)cc4n3)cn2)cc1"
< 50 nM

Give its IC50 value. Item: O=C(Nc1ccc(C(=O)N2CCC(O)C2)cc1)Nc1ccc(-c2nc(N3CCOCC3)c3ccc(-c4ccco4)cc3n2)cc1 (stereo not given)
< 50 nM

Give its IC50 value. Item: "COc1ccc(-c2ccc3c(N4CCOCC4)nc(-c4ccc(NC(=O)Nc5ccc(C(=O)N(C)C)cc5)cc4)nc3c2)cn1"
< 50 nM

Give its IC50 value. Item: "CN(C)C(=O)c1ccc(NC(=O)Nc2ccc(-c3nc(N4CCOCC4)c4cc(F)c(-c5cncnc5)cc4n3)cn2)cc1"
< 50 nM

Give its IC50 value. Item: "CN(C)C(=O)c1ccc(NC(=O)Nc2ccc(-c3nc(N4CCOCC4)c4ncc(-c5cccnc5)cc4n3)cc2)cc1F"
< 50 nM

Give its IC50 value. Item: CC(O)c1ccc(-c2ccc3c(N4CCOCC4)nc(-c4ccc(NC(=O)Nc5ccc(C(=O)N(C)C)cc5)c(F)c4)nc3c2)o1 (stereo not given)
< 50 nM

Give its IC50 value. Item: "CN(C)CCNC(=O)c1ccc2c(N3CCOCC3)nc(-c3ccc(NC(=O)Nc4ccc(C(=O)N(C)C)cc4)cc3)nc2c1"
50 to 200 nM
